Reported IC50 against UniProtKB P45452, gathered from multiple publications, appears below.

Some solved entries appear below for comparison.
{"columns": ["COMPOUND", "ASSAYED_SYSTEM", "IC50"],
 "data": [
  ["CNC(=O)[C@@H](NC(=O)c1ccc(-c2ccc(OCc3cc(C)ccn3)cn2)o1)C1CCCCC1", "UniProtKB P45452", "8 nM"],
  ["O=C1COc2ccc(CNC(=O)c3nc4ccc(Br)cc4c(=O)[nH]3)cc2N1", "UniProtKB P45452", "< 100 nM"],
  ["O=C1COc2ccc(CNC(=O)c3nc4cc(Br)ccc4c(=O)[nH]3)cc2N1", "UniProtKB P45452", "< 100 nM"],
  ["O=C1COc2ccc(CNC(=O)c3nc4sc5c(c4c(=O)[nH]3)CCCNC5)cc2N1", "UniProtKB P45452", "< 100 nM"],
  ["CNC(=O)[C@@H](NC(=O)c1ccc(-c2ccc(OCc3cn(C)cn3)cn2)o1)C1CCNCC1", "UniProtKB P45452", "163 nM"]
]}

Data request: Determine reported IC50 for O=C(O)[C@@H]1[C@@H](Cn2nnc3ccccc3c2=O)CC[C@H]1C(=O)c1ccc(OCCC2CCOCC2)cc1 (single isomer, unassigned) ; test system: UniProtKB P45452.
Data returned: 67 nM

Data request: Determine reported IC50 for O=C1COc2ccc(CNC(=O)c3nc4scc(-c5cnccn5)c4c(=O)[nH]3)cc2N1 ; test system: UniProtKB P45452.
Data returned: < 100 nM

Data request: Determine reported IC50 for COc1cccc2nc(C(=O)NCc3ccc4c(c3)NC(=O)CO4)[nH]c(=O)c12 ; test system: UniProtKB P45452.
Data returned: < 100 nM
